target-or-test-system: 5-hydroxytryptamine receptor 1A (Homo sapiens, UniProt P08908); further: assay procedure not described here
Sequence (P08908 whole entry): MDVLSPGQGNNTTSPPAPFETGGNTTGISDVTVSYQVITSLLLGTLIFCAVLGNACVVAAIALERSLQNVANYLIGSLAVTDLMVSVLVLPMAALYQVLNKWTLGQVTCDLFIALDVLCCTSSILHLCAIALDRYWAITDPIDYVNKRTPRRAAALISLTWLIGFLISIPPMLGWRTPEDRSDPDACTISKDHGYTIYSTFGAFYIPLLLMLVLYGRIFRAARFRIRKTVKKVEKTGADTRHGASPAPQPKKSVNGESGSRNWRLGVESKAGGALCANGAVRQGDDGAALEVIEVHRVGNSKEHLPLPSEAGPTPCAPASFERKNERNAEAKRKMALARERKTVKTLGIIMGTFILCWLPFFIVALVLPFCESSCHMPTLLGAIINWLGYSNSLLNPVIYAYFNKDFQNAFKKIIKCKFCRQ
Parameter: AC50. Scope: all listed entries.

Recorded AC50, per entry:
[
  {
    "compound": "Cc1ccc(C(=O)c2ccc(CC(=O)O)n2C)cc1 [TOLMETIN]",
    "target-or-test-system": "5-hydroxytryptamine receptor 1A (Homo sapiens, UniProt P08908)",
    "result-value": "> 30 µM"
  },
  {
    "compound": "Cc1cn([C@H]2O[C@@H](CO)[C@H](O)[C@H]2F)c(=O)[nH]c1=O [CLEVUDINE]",
    "target-or-test-system": "5-hydroxytryptamine receptor 1A (Homo sapiens, UniProt P08908)",
    "result-value": "> 30 µM"
  },
  {
    "compound": "COc1c2occc2c(OC)c2c(=O)cc(C)oc12 [KHELLIN]",
    "target-or-test-system": "5-hydroxytryptamine receptor 1A (Homo sapiens, UniProt P08908)",
    "result-value": "> 30 µM"
  },
  {
    "compound": "CC(OCCN1CCCCCC1)(c1ccccc1)c1ccc(Cl)cc1 (stereo unspecified) [SETASTINE]",
    "target-or-test-system": "5-hydroxytryptamine receptor 1A (Homo sapiens, UniProt P08908)",
    "result-value": "9.59 µM"
  },
  {
    "compound": "O=C(O)[C@@H]1C[C@@H](O)CN1",
    "target-or-test-system": "5-hydroxytryptamine receptor 1A (Homo sapiens, UniProt P08908)",
    "result-value": "> 30 µM"
  },
  {
    "compound": "CCCCc1oc2ccc(NS(C)(=O)=O)cc2c1C(=O)c1ccc(OCCCN(CCCC)CCCC)cc1 [DRONEDARONE]",
    "target-or-test-system": "5-hydroxytryptamine receptor 1A (Homo sapiens, UniProt P08908)",
    "result-value": "1.72 µM"
  },
  {
    "compound": "Cc1cc(=O)oc2cc(O)ccc12 [HYMECROMONE]",
    "target-or-test-system": "5-hydroxytryptamine receptor 1A (Homo sapiens, UniProt P08908)",
    "result-value": "> 30 µM"
  },
  {
    "compound": "CCC[C@H](N[C@@H](C)C(=O)N1[C@H](C(=O)O)C[C@@H]2CCCC[C@@H]21)C(=O)OCC [PERINDOPRIL]",
    "target-or-test-system": "5-hydroxytryptamine receptor 1A (Homo sapiens, UniProt P08908)",
    "result-value": "> 30 µM"
  },
  {
    "compound": "COC(=O)[C@H]1[C@H]2C[C@@H]3c4[nH]c5cc(OC)ccc5c4CCN3C[C@H]2C[C@@H](OC(=O)c2cc(OC)c(OC)c(OC)c2)[C@@H]1OC [RESERPINE]",
    "target-or-test-system": "5-hydroxytryptamine receptor 1A (Homo sapiens, UniProt P08908)",
    "result-value": "> 30 µM"
  },
  {
    "compound": "O=C(O)COCCN1CCN(C(c2ccccc2)c2ccc(Cl)cc2)CC1 (stereo unspecified) [CETIRIZINE]",
    "target-or-test-system": "5-hydroxytryptamine receptor 1A (Homo sapiens, UniProt P08908)",
    "result-value": "> 30 µM"
  }
]

Record summary for COc1ccc(OC)c(C(O)C(C)N)c1 (stereo unspecified) [METHOXAMINE] : reported AC50 = > 30 µM

* * *

# collection of AC50 values tested on Melanocortin receptor 4 (Homo sapiens); further: assay procedure not described here
# Sequence (P32245 whole entry): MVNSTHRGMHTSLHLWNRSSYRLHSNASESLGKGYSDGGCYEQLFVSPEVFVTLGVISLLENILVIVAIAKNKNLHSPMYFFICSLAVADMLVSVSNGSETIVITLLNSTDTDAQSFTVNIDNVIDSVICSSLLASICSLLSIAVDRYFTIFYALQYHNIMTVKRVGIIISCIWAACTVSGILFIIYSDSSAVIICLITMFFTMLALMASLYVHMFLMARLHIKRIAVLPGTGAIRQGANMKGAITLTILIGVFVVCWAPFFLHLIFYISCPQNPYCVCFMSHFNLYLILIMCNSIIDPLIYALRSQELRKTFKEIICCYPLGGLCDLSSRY

Recorded AC50, per entry:
[
  {
    "compound": "C[C@@H]1C[C@H]2[C@@H]3CCC4=CC(=O)C=C[C@]4(C)[C@@]3(F)[C@@H](O)C[C@]2(C)[C@@]1(O)C(=O)CO",
    "AC50": "> 30 µM"
  },
  {
    "compound": "CC(CN1c2ccccc2Sc2ccccc21)N(C)C (configuration not stated)",
    "AC50": "25 µM"
  },
  {
    "compound": "CC=CC1=C(C(=O)O)N2C(=O)[C@@H](NC(=O)[C@H](N)c3ccc(O)cc3)[C@H]2SC1",
    "AC50": "> 30 µM"
  }
]

Fill in: Melanocortin receptor 4 (Homo sapiens) AC50 for C=C1c2cccc(O)c2C(=O)C2=C(O)[C@]3(O)C(=O)C(C(N)=O)=C(O)[C@@H](N(C)C)[C@@H]3[C@@H](O)[C@H]12 = 41.5 µM

Fill in: Melanocortin receptor 4 (Homo sapiens) AC50 for CCCc1cc(=O)[nH]c(=S)[nH]1 = > 10 µM

Fill in: Melanocortin receptor 4 (Homo sapiens) AC50 for COc1ccc(C2C(=O)c3ccccc3C2=O)cc1 = > 10 µM

Fill in: Melanocortin receptor 4 (Homo sapiens) AC50 for NS(=O)(=O)c1cc2c(cc1Cl)N=C(CSCc1ccccc1)NS2(=O)=O [BENZTHIAZIDE] = > 10 µM

Fill in: Melanocortin receptor 4 (Homo sapiens) AC50 for CC(C)NC[C@H](O)COc1ccc(CC(N)=O)cc1 = > 30 µM

Fill in: Melanocortin receptor 4 (Homo sapiens) AC50 for CCc1nc(N)nc(N)c1-c1ccc(Cl)cc1 = > 10 µM

Fill in: Melanocortin receptor 4 (Homo sapiens) AC50 for O=c1c(O)c(-c2ccc(O)c(O)c2)oc2cc(O)cc(O)c12 = > 30 µM

Fill in: Melanocortin receptor 4 (Homo sapiens) AC50 for COC(=O)[C@H]1[C@H]2C[C@@H]3c4[nH]c5cc(OC)ccc5c4CCN3C[C@H]2C[C@@H](OC(=O)c2cc(OC)c(OC)c(OC)c2)[C@@H]1OC = > 10 µM

Fill in: Melanocortin receptor 4 (Homo sapiens) AC50 for CCOC(=O)c1ncn2c1CN(C)C(=O)c1cc(F)ccc1-2 = > 30 µM

* * *

target-or-test-system: UniProtKB P46098
Sequence (P46098 whole entry): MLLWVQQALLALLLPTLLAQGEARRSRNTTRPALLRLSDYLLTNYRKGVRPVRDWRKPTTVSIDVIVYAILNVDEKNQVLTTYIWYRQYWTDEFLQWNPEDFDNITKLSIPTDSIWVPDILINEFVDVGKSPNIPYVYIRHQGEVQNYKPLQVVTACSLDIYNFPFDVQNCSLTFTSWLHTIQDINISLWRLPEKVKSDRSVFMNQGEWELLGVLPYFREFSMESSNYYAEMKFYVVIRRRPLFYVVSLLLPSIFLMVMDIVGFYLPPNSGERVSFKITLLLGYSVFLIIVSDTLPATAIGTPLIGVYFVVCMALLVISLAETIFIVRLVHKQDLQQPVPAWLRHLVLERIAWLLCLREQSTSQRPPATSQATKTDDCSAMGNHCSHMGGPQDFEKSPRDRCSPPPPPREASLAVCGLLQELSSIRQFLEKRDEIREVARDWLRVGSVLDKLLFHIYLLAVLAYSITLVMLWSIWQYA
Format: functional
measured-attribute: AC50

Record summary for O=C(O)Cc1ccccc1Nc1c(Cl)cccc1Cl : reported AC50 = > 10 µM

Record summary for CN(Cc1cnc2nc(N)nc(N)c2n1)c1ccc(C(=O)N[C@@H](CCC(=O)O)C(=O)O)cc1 [METHOTREXATE] : reported AC50 = > 30 µM

Record summary for CCC1(c2ccc(N)cc2)CCC(=O)NC1=O (stereo not drawn) [AMINOGLUTETHIMIDE] : reported AC50 = > 30 µM

Record summary for CCCN(CCC)S(=O)(=O)c1ccc(C(=O)O)cc1 : reported AC50 = > 30 µM

Record summary for CCC[C@@H]1C[C@@H](C(=O)N[C@@H]([C@H]2O[C@H](SC)[C@H](O)[C@@H](O)[C@H]2O)[C@@H](C)O)N(C)C1 : reported AC50 = > 30 µM

Record summary for CC(c1cc2ccccc2s1)N(O)C(N)=O (stereo not drawn) : reported AC50 = > 30 µM

Record summary for CCCN1CC(NS(=O)(=O)N(CC)CC)CC2Cc3c(O)cccc3CC21 (stereo not drawn) [QUINAGOLIDE] : reported AC50 = > 30 µM

* * *

# collection of AC50 values tested on UniProt:P35367
# Sequence (P35367 whole entry): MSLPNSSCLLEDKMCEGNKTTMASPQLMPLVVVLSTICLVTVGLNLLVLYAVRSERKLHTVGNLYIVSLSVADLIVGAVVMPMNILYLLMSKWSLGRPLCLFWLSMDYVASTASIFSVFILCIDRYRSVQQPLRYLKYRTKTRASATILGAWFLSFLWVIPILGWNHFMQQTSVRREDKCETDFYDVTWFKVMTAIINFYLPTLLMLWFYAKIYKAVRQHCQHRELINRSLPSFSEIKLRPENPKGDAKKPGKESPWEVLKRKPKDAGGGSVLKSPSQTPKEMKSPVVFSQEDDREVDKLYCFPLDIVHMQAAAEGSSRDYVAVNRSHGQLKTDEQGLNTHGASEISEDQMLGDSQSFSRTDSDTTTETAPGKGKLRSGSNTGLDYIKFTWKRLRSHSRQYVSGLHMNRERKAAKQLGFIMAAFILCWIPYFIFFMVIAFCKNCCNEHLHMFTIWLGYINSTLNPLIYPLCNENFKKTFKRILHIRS

Recorded AC50, per entry:
[
  {
    "compound": "CO/N=C(\\C(=O)N[C@@H]1C(=O)N2C(C(=O)O)=C(CSc3nc(=O)c(=O)[nH]n3C)CS[C@H]12)c1csc(N)n1",
    "AC50": "> 30 µM"
  },
  {
    "compound": "C=C1c2cccc(O)c2C(=O)C2=C(O)[C@]3(O)C(=O)C(C(N)=O)=C(O)[C@@H](N(C)C)[C@@H]3[C@@H](O)[C@H]12",
    "AC50": "> 10 µM"
  },
  {
    "compound": "CN(C)C/C=C/C(=O)Nc1cc2c(Nc3ccc(F)c(Cl)c3)ncnc2cc1O[C@H]1CCOC1",
    "AC50": "> 30 µM"
  },
  {
    "compound": "CCCN1CCCC[C@H]1C(=O)Nc1c(C)cccc1C",
    "AC50": "> 30 µM"
  },
  {
    "compound": "CCCCCCCC(=O)CC[C@@H]1[C@@H](C/C=C\\CCCC(=O)OC(C)C)[C@@H](O)C[C@H]1O",
    "AC50": "> 30 µM"
  },
  {
    "compound": "CC1=C(C(=O)OC(C)C)C(c2cccc([N+](=O)[O-])c2)C(C(=O)OC2CN(C(c3ccccc3)c3ccccc3)C2)=C(N)N1 (configuration not stated)",
    "AC50": "> 30 µM"
  },
  {
    "compound": "O=C(c1cc(Cc2n[nH]c(=O)c3ccccc23)ccc1F)N1CCN(C(=O)C2CC2)CC1",
    "AC50": "> 10 µM"
  },
  {
    "compound": "CN1Cc2c(N)cccc2C(c2ccccc2)C1 (configuration not stated)",
    "AC50": "30 µM"
  },
  {
    "compound": "C=CCN1CCc2nc(N)sc2CC1 [TALIPEXOLE]",
    "AC50": "28 µM"
  },
  {
    "compound": "C/C=C(/C(=C/C)c1ccc(O)cc1)c1ccc(O)cc1",
    "AC50": "> 10 µM"
  }
]

Fill in: UniProt:P35367 AC50 for CCN1CCCC1CNC(=O)c1cc(S(=O)(=O)CC)ccc1OC (configuration not stated) [SULTOPRIDE] = > 30 µM

Fill in: UniProt:P35367 AC50 for CNCCc1ccc(OC(=O)C(C)C)c(OC(=O)C(C)C)c1 = > 30 µM

Fill in: UniProt:P35367 AC50 for O=S1(=O)CCN(CN2CCS(=O)(=O)NC2)CN1 = 4.6 µM

Fill in: UniProt:P35367 AC50 for O=C(O)Cc1ccccc1Oc1ccc(Cl)cc1Cl = > 10 µM

Fill in: UniProt:P35367 AC50 for NS(=O)(=O)c1cc2c(cc1Cl)N=C(CSCc1ccccc1)NS2(=O)=O [BENZTHIAZIDE] = > 30 µM

Fill in: UniProt:P35367 AC50 for CCCN1CC(NS(=O)(=O)N(CC)CC)CC2Cc3c(O)cccc3CC21 (configuration not stated) [QUINAGOLIDE] = 2.8 µM

Fill in: UniProt:P35367 AC50 for CC1(C)S[C@@H]2[C@H](NC(=O)C(C(=O)O)c3ccccc3)C(=O)N2[C@H]1C(=O)O (some centres not stated) = > 30 µM
